assay: yeast display, Sf9 membrane polyspecificity reagent, FACS + sequencing; frameworks hold sequencing errors

input sequence: QVQLVESGGGLVQAGGSLRLSCAASGIIFDLYTKGWYRQAPGKEREFVATINWGGGNTYYADSVKGRFTISRDNAKNTVYLQMNSLKPDDTAVYYCAAAYTWYGYSQAYYYWGQGSQVTVSS
polyreactivity (PSR sort gate): low polyreactivity
//
input sequence: QVQLVESGGRLVQAGGSLRLSCAASGLILLPNTMGWYRQAPGKESEMVAAISYSGGGTYYADSVKARFTISRDNAKNSVYLQMNSLKPEDTAVYYCAAYVKRESAPYGYWGQGTQVTVSS
polyreactivity (PSR sort gate): low polyreactivity
//
input sequence: QVQLVESGGGLVQAGGSLRLSCAASGSTFQVNAMGWYRQAPGKERELVASISGGSSTNYADSVKGRFTISRDNAKNTVYFQMNSLKPEDTAVYYCAADYLSGLRVAYDYWGQGTQVTVSS
polyreactivity (PSR sort gate): low polyreactivity
//
input sequence: QVQLVESGGGLVQAGGSLRLSFAASGLIFGYYTMGWYTQAPGKERELVAAITGIADSTYYADSVKGRFTISRDNAKNTVYLQMNSLKPEDTAVYYCAADKYVAEYDYWGQGTQVTVSS
polyreactivity (PSR sort gate): low polyreactivity
//
input sequence: QVQLVESGGGLVQAGGSLRLSCAASGRTFYVNAMGWYRQAPGKERELVARISSSGITYYADSVKGRFTISRDNAKNSVSLQMNSLKPEDTAVYYCAAGPWFYYWGLGTQVTVSS
polyreactivity (PSR sort gate): low polyreactivity
//
input sequence: QVQLVESGGGLVQAGGSLRLSCAASGFIFETYVMGWYRQAPGKVRALVAAISGGGSTYYADSVKGRFTMSRDNAKNTVYLQMNSLKPEDTAVYYCAAGSWRARSYYHYYYWGQGTQVTVSS
polyreactivity (PSR sort gate): high polyreactivity
//
input sequence: QVQLVESGGGLVQAGGSLRLSCAASGRTFRLNAMGWYRQAPGKERELVAAITASGGRTYYADSVKGRFTISRDNAKNTVYLQMNSLKPEDTAVYYCNTLSRTDASRFDYWGQGTQVTVSS
polyreactivity (PSR sort gate): high polyreactivity
//
input sequence: QVQLVESGGGLVQAGGSLRLSCAASGNTFGVYAMGWYRQAPGKERELVAAIRYRGGSTYYADSVKGRFTISRDKAKNTVYLQMTSLKPEETAVYYCAAVYYVQYVGRYYYWGQGTQVTVSS
polyreactivity (PSR sort gate): high polyreactivity
//
input sequence: QVQLVESGGGLVQAGGSLRLSCAASGRIFQRYAMGWYRQAPGKERELVAVITKRGGNTYYADSVKGRFTISRDNAKNTVYLQMNSLKPEDTAVYYCATRSGRSTGDYWGQGTQVTVSS
polyreactivity (PSR sort gate): high polyreactivity
//
input sequence: QVQLVESGGGLFQAGGSLRLSCAASGNIFVDYDMGWYRQAPGKERELDATITGTGDSTTYADSVKGRFTISRDIAKNTVYLQMNSLKPEDTAVYYCNTDLRLVYRTKGFISWGYDYWGQGTQVTVSS
polyreactivity (PSR sort gate): low polyreactivity
//
input sequence: QVQLVESGGGLVQAGGSLRLSCADSGRTNPHYAMGWYRQAPGKESEFVAAISSRGGSTYDADSVKGRFTISRDNAKNTVYVQMNSLKPEDTAVYYCAAQYDGLPRVSYGLGEFGYWGQGSQVTVSS
polyreactivity (PSR sort gate): low polyreactivity

----------
assay: yeast display, Sf9 membrane polyspecificity reagent, FACS + sequencing; frameworks hold sequencing errors

input sequence: QVQLVESWGGLVQAGGSLRLSCAASGITLGYYSMGWYRQAPGKERELVAGISSSGDSTYYADSVKGRFTISRDNAKNSVYLQIKSLKPEDTAVYYCIADGWYFEYWGQGTQVTVSS
polyreactivity (PSR sort gate): low polyreactivity
--
input sequence: QVQLVESGGGVVQAGGSLRVSCAATGSIYYRSAMGWYRQAPGKERELVAAISVSGGSTYYADSVKGRFTISRDNAKITDYLQMNSLKPEDTAVYYCAAVVRYGYEYWGQGTQVTVSS
polyreactivity (PSR sort gate): high polyreactivity
--
input sequence: QVQLVESGGGLVQAGGSLRLSCAASGIISRWYAMGWYRQAPGKERELVAAIRWSGGRTYYADSVKGRFTISRDNAKNTVYLQMNSLKPEDTAVYYCAADVRQRGIYGPGPHYYWGQGTQVTVSS
polyreactivity (PSR sort gate): low polyreactivity
--
input sequence: QVQLVESGGGLVQAGGSLRLSCAASGSTFGGYAMGWYRQAPGKERELVASISGGTRTNYADSVKGRFTISRDNAKNSVYLQMNSLKPEDTAVYYCAAEVGLPTWYTLPVDDYDYWGQGTQVTVSS
polyreactivity (PSR sort gate): low polyreactivity
--
input sequence: QVQLVESGGGLVQAGGSLRLSCAASGSTLYPYDMGWYRQAPGTERELVAAIDSGGSTNYADSVKGRFTISRDNAKNTVYLQMNSLKPEDTAVYFFAADASGENDYWGQGTQVTVSS
polyreactivity (PSR sort gate): low polyreactivity
--
input sequence: QVQLVESGAALVQAGGSLSLSCAASGLTFYYYAMGWYRQAPGKERELVAAITSGGSTNYADSVKGRFTISRDNAKNTVFLQINSLKPEDTAVYYCAADPRYSFWGMYYWGLGTQVTVSS
polyreactivity (PSR sort gate): low polyreactivity
--
input sequence: QVQLVESGGGLVQAGGSLRLSCAASGSTFGFNAMGWYRPAPGKERELVAAINESGGDTYYADSVKGRFTISRDNAKNTVYLQMNSLKPEDTAVYYCAADEPSSVYGILVELEYWGQGTQVTVSS
polyreactivity (PSR sort gate): high polyreactivity
--
input sequence: QVQLVESVGGLVQAGGSLRLSGADSGITFGVYAMGWYRQAPGKVRELVAAICVSGGSTYYADSVKGRFTISRDNAKNTVYLHMNSLKPEVTAVYYCAADRYGHFGYWGQGTQVTLSS
polyreactivity (PSR sort gate): high polyreactivity
--
input sequence: QVQLVESGGGLVQAGGSLRLSCAASGSILVANGMGWYRKAPGKERELVAGITTRGGNTYYADSVKGRFTISRDNAKNTVYLQMNSLKPEDTAVYYCATDLIGVWYWYEYWGQGTQVTVSS
polyreactivity (PSR sort gate): low polyreactivity
--
input sequence: QVQLVESGGGLVQAGGSLRLSCAASGSIFYGYAMGWYRQAPGKERELVAAISWTGGRTYYADSVKGRFTISRDNAKNTVYLQMNSLKPEDTAVYYCNVRRYSVVSGGYCGQGTQVTVSS
polyreactivity (PSR sort gate): high polyreactivity
--
input sequence: QVQLVESCAGLVQAGGSLRLTCADSGSIFDFNAMGWYRQVPGKEREWVAAITSGGSTNYADSVKGRFTNSRDNAKNTVYLQMNSLKPEDTAVYYCAARPARGASQGGYVRPWWYDSWGQGTQVTVSS
polyreactivity (PSR sort gate): low polyreactivity

----------
test: yeast display, Sf9 membrane polyspecificity reagent, FACS + sequencing; frameworks hold sequencing errors
measured parameter: polyreactivity (PSR sort gate)

input sequence: QVQLVESGGGLVQAGGSLRLSCAASGIIFRTNAMGWYRQAPGKEREFVAAISAGGTRTYYADSVKGRFTISRDNAKNTVYLQMNSLKPEDTAVYYCAAASGYDYWGQGTQVTVSS
recorded measurement: high polyreactivity
//
input sequence: QVQLVESGGGLFQEGGSLRLSCAASGIISKYYAMGWYRQAPGKERELVAAITRSGTSTYYADSVKGRFTISRDNAKNSVYLQMNSLKPEDTAVYYCAAVSGGRTPRYDYWGQGTQVTVSS
recorded measurement: high polyreactivity
//
input sequence: QVQLVESGGGLVQAGGSLRLSSAASGSIFWYYAMGWYRQAPGKERELVADITIRGGRTYYADSVKGRFTISRDNAKNTVYFQMNSLKPEDTAVFYCAADWEYWGFGLYDYWGQGTQVTVSS
recorded measurement: low polyreactivity
//
input sequence: QVQLVESGGGLVQAGGSLRLSCAASGFIFRVYAMGWYRQAPGKERELVAAMSYSGGSTYYADSVKGRFTISRDNAKNTVYLQMNSLKPEDTAVYYCAAESYVSRYPYGYWGQGTQVTVSS
recorded measurement: high polyreactivity
//
input sequence: QVQLVESGGGLVQAGGSLRLSCAASGIIFRLNAMGWYRQAPGKERELVAAIRRRGGSTYYADSVKGRFTISRDKAKNTVYLQMNSLKPEDTAVYYCAKDPHGSDFGYWGQGTQVTVSS
recorded measurement: low polyreactivity

----------
experiment: yeast display, Sf9 membrane polyspecificity reagent, FACS + sequencing; frameworks hold sequencing errors
measured parameter: polyreactivity (PSR sort gate)

input sequence: PVQLVESGGGLVQAGGSLRLSCAASGSTFDAYDLGWYRQAPGKERELVAAINWSGGITYYADSVKGRFTISRDNAKNTVYLQMNSLKPEDTAVYYCNADASFYSRVNYWGQGTQVTVSS
recorded measurement: high polyreactivity

input sequence: QVQLVESGGGLVQAGGSLRLSCAASGNTFYRYAMGWYRQAPGKEREFVAGITSRGGSTSYADSVKGRFTISRDNAKNTVYLQMNSLKPEDTAVYYCAKKYFRPLRSYDYWGQGTQVTVSS
recorded measurement: high polyreactivity

input sequence: QVQLVESGGGLVQAGGNLRLSCASSGIIFFKYAMGWYRPEPGKERELVAAITSGGSTYYADSVKWRFTISRDNAKKTVYLQMNSLKPEDTAVYYCAAAGGRFIRYCYWGQGTQVTVSS
recorded measurement: high polyreactivity

input sequence: QVQLVESGGGLFQAGGSLRLSCAASGFIFYDNAIGWYRQAPGKERELVASISVSGGSTYYADSVKGRFTISRDKAKNTVYLHMNSLKAEDTAVYYCAASYRDGHIRHDYWGQGTQVTVSS
recorded measurement: low polyreactivity

input sequence: QVQLVESGGGLVQAGGSLRLSCAAYGSIFHVYAMGWYRQAPGKERELVAAIDRSGGSTYYADSVKGRFTISRDNAKNTVYLQMNSLKPEDTSVYYCAKDVLGGQITDGVGNDYWGQGTQVTLSS
recorded measurement: low polyreactivity
